system: T. cruzi (CL Brener strain) epimastigotes; conditions: read-out: T. cruzi EC50; epimastigotes; mean of triplicate experiments ± SEM
pEC50: −log10 of the molar value.

# COMPOUND, pEC50
measured = [
    ("CC1CCC2(NC(=O)N(CC(=O)NO)C2=O)c2ccccc21 (stereo not shown)", "< 4.52"),
]

* * *

test system: rat skeletal myoblast L6 cells; experiment: Cytotoxicity against cultured L6 cells (resazurin); settings: read-out: L6 Cells CC50; mean of triplicate experiments ± SEM
Each entry below lists one item and its recorded CC50 value.

# COMPOUND, CC50 / µM
records = [
    ("O=C(CN1C(=O)NC2(CCCCC2c2ccccc2)C1=O)NO (stereo not drawn) [Compound 37]", 246),
    ("CC1CCC2(NC(=O)N(CC(=O)NO)C2=O)c2ccccc21 (stereo not drawn) [Compound 34]", 224),
    ("CC(C(=O)NO)N1C(=O)NC2(CCC(c3ccccc3)CC2)C1=O (stereo not drawn) [Compound 49]", 233),
]

* * *

EC50 values for the compounds below.
tested on: HCV GT 4a (strain ED43) subgenomic replicon; assay: microbe, parasite or virus in culture; type: cell-based, hepatitis C virus; conditions: Hepatitis C virus, GT4A, 72 h; luciferase; mean ± SD; read-out: Huh7.5-4a(ED43) (HCV Replicon 4a) EC50
OBSERVATION_TYPE: EC50 (nM)

# COMPOUND, OBSERVATION_TYPE, MEASURE_UNIT, BOUND_SIGN, OBS_VALUE
data = [
    ("O=C(CN1C(=O)NC2(CCCCC2c2ccccc2)C1=O)NO (centres unmarked) [Compound 37]", "EC50", "nM", ">", 10000),
    ("CN1C(=O)N(CC(=O)NO)C(=O)C12CCC(c1ccccc1)CC2 (centres unmarked) [Compound 38]", "EC50", "nM", "=", 220),
    ("O=C(CN1C(=O)NC2(CCC(c3ccccc3)CC2)C1=O)NO (centres unmarked) [Compound 36]", "EC50", "nM", "=", 390),
    ("CN1C(=O)N(CC(=O)NO)C(=O)C12CCCCC2c1ccccc1 (centres unmarked) [Compound 39]", "EC50", "nM", ">", 10000),
    ("O=C(CN1C(=O)N(Cc2ccccc2)C2(CCCCC2c2ccccc2)C1=O)NO (centres unmarked) [Compound 42]", "EC50", "nM", "=", 450),
]

* * *

test system: HCV GT 4a (strain ED43) subgenomic replicon; assay: microbe, parasite or virus in culture; assay type: cell-based, hepatitis C virus; conditions: Hepatitis C virus, GT4A, 72 h; luciferase; mean ± SD; read-out: Huh7.5-4a(ED43) (HCV Replicon 4a) EC50
pEC50: −log10 of the molar value.
Entries and their pEC50
OBSERVATION_TYPE: pEC50

# MOLECULE, TEST_SYSTEM, BOUND_SIGN, OBS_VALUE
data = [
    ("CC(C(=O)NO)N1C(=O)NC2(CCC(c3ccccc3)CC2)C1=O (stereo not shown)", "HCV GT 4a (strain ED43) subgenomic replicon", "<", 5.00),
    ("O=C(CN1C(=O)N(Cc2ccccc2)C2(CCC(c3ccccc3)CC2)C1=O)NO (stereo not shown)", "HCV GT 4a (strain ED43) subgenomic replicon", "<", 5.00),
    ("CC(C(=O)NO)N1C(=O)N(C)C2(CCC(c3ccccc3)CC2)C1=O (stereo not shown)", "HCV GT 4a (strain ED43) subgenomic replicon", "=", 6.55),
    ("CCN1C(=O)N(CC(=O)NO)C(=O)C12CCC(c1ccccc1)CC2 (stereo not shown)", "HCV GT 4a (strain ED43) subgenomic replicon", "=", 6.51),
]

* * *

system: bloodstream form T. b. brucei (strain 221); details: selectivity index
OBSERVATION_TYPE: SI (CC50 for L6 cells / EC50 for T. brucei)

# MOLECULE, TEST_SYSTEM, OBS_VALUE
data = [
    ("CC1CCC2(NC(=O)N(CC(=O)NO)C2=O)c2ccccc21 (centres unmarked) [Compound 34]", "bloodstream form T. b. brucei (strain 221)", 335),
    ("O=C(CN1C(=O)N(Cc2ccccc2)C2(CCC(c3ccccc3)CC2)C1=O)NO (centres unmarked) [Compound 41]", "bloodstream form T. b. brucei (strain 221)", 440),
    ("O=C(CN1C(=O)N(Cc2ccccc2)C2(CCCCC2c2ccccc2)C1=O)NO (centres unmarked) [Compound 42]", "bloodstream form T. b. brucei (strain 221)", 62),
    ("CN1C(=O)N(CC(=O)NO)C(=O)C12CCC(c1ccccc1)CC2 (centres unmarked) [Compound 38]", "bloodstream form T. b. brucei (strain 221)", 220),
    ("CN1C(=O)N(CC(=O)NO)C(=O)C12CCCCC2c1ccccc1 (centres unmarked) [Compound 39]", "bloodstream form T. b. brucei (strain 221)", 150),
]

* * *

system: T. cruzi (CL Brener strain) epimastigotes; settings: selectivity index
Please mark yes (1) if the recorded SI (CC50 for L6 cells / EC50 for T. cruzi) is equal to or greater than 6, and no (0) if it falls below.

# COMPOUND, CLASS
records = [
    ("CN1C(=O)N(CC(=O)NO)C(=O)C12CCC(c1ccccc1)CC2 (centres unmarked) [Compound 38]", "no (0)"),
    ("CC(C(=O)NO)N1C(=O)N(C)C2(CCC(c3ccccc3)CC2)C1=O (centres unmarked) [Compound 53]", "yes (1)"),
    ("O=C(CN1C(=O)N(Cc2ccccc2)C2(CCC(c3ccccc3)CC2)C1=O)NO (centres unmarked) [Compound 41]", "yes (1)"),
    ("CCN1C(=O)N(CC(=O)NO)C(=O)C12CCC(c1ccccc1)CC2 (centres unmarked) [Compound 40]", "yes (1)"),
]

* * *

system: T. cruzi (CL Brener strain) epimastigotes; test: microbe, parasite or virus in culture; conditions: Trypanosoma cruzi, read-out: T. cruzi EC90

# COMPOUND, EC90 / µM
records = [
    ("CC(C(=O)NO)N1C(=O)N(C)C2(CCC(c3ccccc3)CC2)C1=O (centres unmarked)", 11.9),
    ("O=C(CN1C(=O)N(Cc2ccccc2)C2(CCC(c3ccccc3)CC2)C1=O)NO (centres unmarked)", 0.74),
    ("CCN1C(=O)N(CC(=O)NO)C(=O)C12CCC(c1ccccc1)CC2 (centres unmarked)", 1.86),
    ("O=C(CN1C(=O)N(Cc2ccccc2)C2(CCCCC2c2ccccc2)C1=O)NO (centres unmarked)", 3.12),
    ("CN1C(=O)N(CC(=O)NO)C(=O)C12CCC(c1ccccc1)CC2 (centres unmarked)", 13.3),
]

* * *

assay: Cytotoxicity in Huh5-2 replicon cells (intracellular ATP levels); details: human
# CC50 at 72 h per record follows

# MOLECULE, BOUND_SIGN, CC50 at 72 h, µM
data = [
    ("CN1C(=O)N(CC(=O)NO)C(=O)C12CCC(c1ccccc1)CC2 (stereo not shown) [Compound 38]", "=", 43.1),
    ("CC(C(=O)NO)N1C(=O)N(C)C2(CCC(c3ccccc3)CC2)C1=O (stereo not shown) [Compound 53]", "=", 100),
    ("O=C(CN1C(=O)NC2(CCCCC2c2ccccc2)C1=O)NO (stereo not shown) [Compound 37]", ">", 10),
    ("O=C(CN1C(=O)NC2(CCC(c3ccccc3)CC2)C1=O)NO (stereo not shown) [Compound 36]", "=", 75.4),
    ("CC(C(=O)NO)N1C(=O)NC2(CCC(c3ccccc3)CC2)C1=O (stereo not shown) [Compound 49]", ">", 10),
    ("CN1C(=O)N(CC(=O)NO)C(=O)C12CCCCC2c1ccccc1 (stereo not shown) [Compound 39]", ">", 10),
    ("CC1CCC2(NC(=O)N(CC(=O)NO)C2=O)c2ccccc21 (stereo not shown) [Compound 34]", ">", 200),
]

* * *

test: Cytotoxicity against cultured L6 cells (resazurin); conditions: rat, L6 rat skeletal myoblast cells, L6 Cells CC50, mean of triplicate experiments ± SEM

# COMPOUND, CC50 at 6 days
data = [
    ("CC(C(=O)NO)N1C(=O)NC2(CCC(c3ccccc3)CC2)C1=O (stereo not drawn)", "> 200 µM"),
    ("O=C(CN1C(=O)NC2(CCCCC2c2ccccc2)C1=O)NO (stereo not drawn)", "> 200 µM"),
    ("CC1CCC2(NC(=O)N(CC(=O)NO)C2=O)c2ccccc21 (stereo not drawn)", "> 200 µM"),
]
